System tested: MMP-13 (Homo sapiens, UniProt P45452)
Test protocol: MMP-12 test adapted to MMP-13
Type: biochemical
Kindly supply the reported IC50 values for the records listed here.
One number for each entry, in µM.

Reference set, count: 3
1) CC(=O)c1ccc(-c2ccc(-c3csc(C(=O)NCc4ccc(C(=O)O)cn4)c3)cc2)cc1 ... 0.08
2) O=C(O)Cc1cccc(CNC(=O)c2cc(-c3ccc(OC(F)(F)F)cc3)cs2)c1 ... 5.17
3) O=C(O)CC1CCC(CNC(=O)c2cc(-c3ccc(OC(F)(F)F)cc3)cs2)CC1 (stereo not shown) ... 3.3

Kindly review the next compound as well.
INPUT: State the recorded IC50 for this entry: O=C(NCc1cc(F)c(O)c(F)c1)c1cc(-c2ccc(OC(F)(F)F)cc2)cs1
OUTPUT: 3.06

###

System tested: MMP-12 (Homo sapiens, UniProt P39900)
Sequence (P39900 106-470): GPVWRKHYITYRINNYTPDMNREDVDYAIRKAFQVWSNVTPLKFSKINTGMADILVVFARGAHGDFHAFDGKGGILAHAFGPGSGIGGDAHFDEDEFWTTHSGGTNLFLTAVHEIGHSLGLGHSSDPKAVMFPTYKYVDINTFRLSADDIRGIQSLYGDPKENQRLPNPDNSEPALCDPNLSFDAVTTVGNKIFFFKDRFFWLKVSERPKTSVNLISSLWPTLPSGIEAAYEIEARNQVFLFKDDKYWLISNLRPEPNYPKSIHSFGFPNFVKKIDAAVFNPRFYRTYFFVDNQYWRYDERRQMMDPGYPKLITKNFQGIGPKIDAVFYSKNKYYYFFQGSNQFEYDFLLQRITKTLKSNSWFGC
Test protocol: In vitro inhibition of proteolysis of fluorogenic peptide substrate FP-1 by MMP-12
Assay type: biochemical
Experimental parameters: substrate FP-1 10 μM, 20 minutes at ambient temperature, compounds tested 0.3 to 30 μM
// assign yes (1) if IC50 falls strictly below 0.7 µM, else no (0) (ties count as no (0))

Worked examples follow.
1. O=C(NCCN1CCOCC1)c1cc(-c2ccc(-c3cccc(O)c3)cc2)cs1 [Example 74] ... yes (1)
2. O=C(NCCN1CCOCC1)c1cc(-c2ccc(N3CCCC3)cc2)cs1 [Example 14] ... no (0)
3. O=C(O)CCc1ccc(NC(=O)c2cc(-c3ccc(OC(F)(F)F)cc3)cs2)nc1 [Example 27] ... no (0)

INPUT: Find out if reported IC50 for O=C(NCCN1CCOCC1)c1cc(-c2ccc(-c3ccccc3)cc2)cs1 [Example 2] is less than 0.7 µM
OUTPUT: yes (1)

###

System tested: MMP-12 (Homo sapiens)
Test protocol: In vitro inhibition of proteolysis of fluorogenic peptide substrate FP-1 by MMP-12
Assay type: biochemical
Experimental parameters: substrate FP-1 10 μM, 20 minutes at ambient temperature, compounds tested 0.3 to 30 μM
Method: The inhibitory activity of the compounds of formula (I) with regard to metalloproteinase-12 is evaluated by testing the ability of the compounds of the invention to inhibit the proteolysis of a peptide substrate by MMP-12. […] The measurement of the amount of proteolysis of the peptide substrate is monitored by a measurement of absorbance at 405 nm using a microplate spectrophotometer, at ambient temperature. […]
Assay metric: IC50 (µM)
Numbers only, in µM.

1) O=C(O)CC1CCC(CNC(=O)c2cc(-c3ccc(OC(F)(F)F)cc3)cs2)CC1 (centres unmarked) ... 0.425
2) O=C(NCc1cc(F)c(O)c(F)c1)c1cc(-c2ccc(OC(F)(F)F)cc2)cs1 ... 0.56
3) O=C(O)CC[C@H]1CC[C@H](NC(=O)c2cc(-c3ccc(OC(F)(F)F)cc3)cs2)CC1 ... 0.78

Okay, here is my list. What is IC50 for each of these?
1. CC(C)[C@H](NC(=O)c1cc(-c2ccc(OC(F)(F)F)cc2)cs1)C(=O)O
2. O=C(O)Cc1ccc(NC(=O)c2cc(-c3ccc(OC(F)(F)F)cc3)cs2)cc1
3. O=C(NC[C@H]1CC[C@H](C(=O)O)CC1)c1cc(-c2ccc(OC(F)(F)F)cc2)cs1 [Example 35]
4. O=C(NCCN1CCOCC1)c1cc(-c2ccc(-c3cccc(CO)c3)cc2)cs1
5. O=C(NCc1ccc(O)c(C(=O)O)c1)c1cc(-c2ccc(OC(F)(F)F)cc2)cs1

OUTPUT:
1: 0.78; 2: 0.615; 3: 0.405; 4: 0.99; 5: 0.95

// data source = patent US20040072871A1
